biological target: AChE from electric eel (EeAChE) (Electrophorus electricus, UniProt O42275); test: In vitro AChE inhibition, modified Ellman's method; assay type: biochemical; conditions: read-out: % of AChE inhibition
Sequence (O42275 24-633): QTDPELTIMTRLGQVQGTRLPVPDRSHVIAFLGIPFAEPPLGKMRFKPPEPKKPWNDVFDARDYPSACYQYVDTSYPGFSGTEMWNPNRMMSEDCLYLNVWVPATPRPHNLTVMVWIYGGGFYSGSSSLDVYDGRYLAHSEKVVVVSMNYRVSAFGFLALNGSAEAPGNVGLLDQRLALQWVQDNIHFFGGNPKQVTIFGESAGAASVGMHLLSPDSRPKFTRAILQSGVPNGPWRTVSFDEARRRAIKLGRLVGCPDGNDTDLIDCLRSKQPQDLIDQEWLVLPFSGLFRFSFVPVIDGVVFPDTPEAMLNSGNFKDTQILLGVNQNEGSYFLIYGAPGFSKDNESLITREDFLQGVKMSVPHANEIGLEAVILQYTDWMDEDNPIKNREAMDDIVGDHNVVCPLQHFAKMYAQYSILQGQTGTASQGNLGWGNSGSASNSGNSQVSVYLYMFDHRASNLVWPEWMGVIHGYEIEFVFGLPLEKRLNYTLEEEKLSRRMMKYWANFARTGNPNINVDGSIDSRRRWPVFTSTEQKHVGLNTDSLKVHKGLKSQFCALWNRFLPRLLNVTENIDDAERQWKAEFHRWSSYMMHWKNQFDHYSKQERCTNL
Listing of recorded inhibition at 312 µM by entry.

Below, 5 molecules whose answers are already recorded.
{"Chemical string": "Cc1ncc(COCc2cn(Cc3cccc(Br)c3)nn2)c(CO)c1O", "inhibition at 312 µM": "25.8%"}
{"Chemical string": "Cc1ncc(COCc2cn(Cc3cc(F)cc(F)c3)nn2)c(CO)c1O", "inhibition at 312 µM": "26.6%"}
{"Chemical string": "Cc1cccc(Cn2cc(COCc3cnc(C)c(O)c3CO)nn2)c1", "inhibition at 312 µM": "26.9%"}
{"Chemical string": "Cc1ncc(COCc2cn(Cc3cccc(F)c3)nn2)c(CO)c1O", "inhibition at 312 µM": "25.5%"}
{"Chemical string": "Cc1ncc(COCc2cn(Cc3ccccc3C(F)(F)F)nn2)c(CO)c1O", "inhibition at 312 µM": "26.9%"}

Next up:
Form field inhibition at 312 µM, entry Cc1ccccc1Cn1cc(COCc2cnc(C)c(O)c2CO)nn1 : 36.4%

* * *

Here the recorded inhibition at 1250 µM is given for each entry.
target: AChE from electric eel (EeAChE) (Electrophorus electricus); assay: In vitro AChE inhibition, modified Ellman's method; type: biochemical; conditions: read-out: % of AChE inhibition
Kindly format the answer as number then unit.

Consider the worked cases shown below.
{"Chemical string": "Cc1cccc(Cn2cc(COCc3cnc(C)c(O)c3CO)nn2)c1", "Measured target": "AChE from electric eel (EeAChE) (Electrophorus electricus)", "inhibition at 1250 µM": "53.8%"}
{"Chemical string": "Cc1ccccc1Cn1cc(COCc2cnc(C)c(O)c2CO)nn1", "Measured target": "AChE from electric eel (EeAChE) (Electrophorus electricus)", "inhibition at 1250 µM": "58.6%"}
{"Chemical string": "Cc1ncc(COCc2cn(Cc3cccc(F)c3)nn2)c(CO)c1O", "Measured target": "AChE from electric eel (EeAChE) (Electrophorus electricus)", "inhibition at 1250 µM": "56.4%"}
{"Chemical string": "Cc1ncc(COCc2cn(Cc3cc(F)cc(F)c3)nn2)c(CO)c1O", "Measured target": "AChE from electric eel (EeAChE) (Electrophorus electricus)", "inhibition at 1250 µM": "43%"}
{"Chemical string": "Cc1ncc(COCc2cn(Cc3ccccc3C(F)(F)F)nn2)c(CO)c1O", "Measured target": "AChE from electric eel (EeAChE) (Electrophorus electricus)", "inhibition at 1250 µM": "53.8%"}

Lookup result for Cc1ncc(COCc2cn(Cc3cccc(Br)c3)nn2)c(CO)c1O ; measured inhibition at 1250 µM: 57.4%

* * *

target: AChE from electric eel (EeAChE) (Electrophorus electricus, UniProt O42275); assay: In vitro AChE inhibition, modified Ellman's method; assay type: biochemical; conditions: read-out: % of AChE inhibition
Reported endpoint: inhibition at 2500 µM (%)
Give a bare numeral; the unit % is implied.

Entry Cc1ncc(COCc2cn(Cc3cc(F)cc(F)c3)nn2)c(CO)c1O ; assay system AChE from electric eel (EeAChE) (Electrophorus electricus, UniProt O42275); inhibition at 2500 µM recorded at 61.4

Entry Cc1cccc(Cn2cc(COCc3cnc(C)c(O)c3CO)nn2)c1 , AChE from electric eel (EeAChE) (Electrophorus electricus, UniProt O42275) data, inhibition at 2500 µM value: 64.1

Given the compound Cc1ccccc1Cn1cc(COCc2cnc(C)c(O)c2CO)nn1 and test system AChE from electric eel (EeAChE) (Electrophorus electricus, UniProt O42275), the measured inhibition at 2500 µM is 69.6

inhibition at 2500 µM for AChE from electric eel (EeAChE) (Electrophorus electricus, UniProt O42275) with input Cc1ncc(COCc2cn(Cc3cccc(Br)c3)nn2)c(CO)c1O equals 70.2

The value of inhibition at 2500 µM recorded for Cc1ncc(COCc2cn(Cc3cccc(F)c3)nn2)c(CO)c1O when tested on AChE from electric eel (EeAChE) (Electrophorus electricus, UniProt O42275) reads 60.5

Considering Cc1ncc(COCc2cn(Cc3ccccc3C(F)(F)F)nn2)c(CO)c1O , its inhibition at 2500 µM with AChE from electric eel (EeAChE) (Electrophorus electricus, UniProt O42275) was recorded as 64.1
